EXPERIMENTAL_TARGET: T1, rat CD47 (rat, UniProt P97829 19-303)
T1 construct: whole, on cells; also called CD47 on rat red blood cells
T1 sequence (looked up): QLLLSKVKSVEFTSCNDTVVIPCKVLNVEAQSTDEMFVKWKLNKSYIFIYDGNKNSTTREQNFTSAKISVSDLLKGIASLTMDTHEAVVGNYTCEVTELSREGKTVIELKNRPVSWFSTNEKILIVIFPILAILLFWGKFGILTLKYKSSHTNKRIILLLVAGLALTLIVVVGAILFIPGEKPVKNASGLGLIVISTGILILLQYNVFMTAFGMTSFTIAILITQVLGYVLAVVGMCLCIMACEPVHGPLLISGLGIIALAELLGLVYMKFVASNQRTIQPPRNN
EXPERIMENT_NOTES: flow cytometry on RBCs, antibody 10 ng/ml
MEASUREMENT_NAME: mean fluorescence relative to chimeric antibody

Answered cases to consult:
Enquiry: Please list mean fluorescence relative to chimeric antibody recorded for the binder pVxK7b-037-hum21-LC/pVxK7b-037-hum21-HC (antibody, human IgG1, V domains shown, Full-length human IgG1/kappa in CHO supernatant; Variable entries end within framework 4 (...FGQG / ...WGQG); also called Clone 21) VH: QVQLQESGPGLVKPSQTLSLTCTVSGYTFTNYYVFWVRQARGQRLEWIGDINPVNGDTNFNEKFKNRLTISKDTSKNQVVLTMTNMDPVDTATYYCARGGYTMDYWGQG VL: AIQLTQSPSSLSASVGDRVTITCRSSQSLVHSNGNTYLHWYQQKPGQAPRLLIYKVSYRFSGVPDRFSGSGSGTDFTLKISRVEAEDVGVYYCSQNTHVPRTFGQG
Return: 2.8 fold of chimera

Enquiry: Please list mean fluorescence relative to chimeric antibody recorded for the binder pVxK7b-037-hum11-LC/pVxK7b-037-hum11-HC (antibody, human IgG1, V domains shown, Full-length human IgG1/kappa in CHO supernatant; Variable entries end within framework 4 (...FGQG / ...WGQG); also called Clone 11) VH: QVQLQESGPGLVKPGATVKISCKVSGYTFTNYYVFWVRQARGQRLEWIGDINPVNGDTNFNEKFKNRVTITADKSTSTAYMELSSLRSEDTAVYYCARGGYTMDYWGQG VL: EIVLTQSPATLSVSPGERATLSCRSSQSLVHSNGNTYLHWYQQKPGQAPRLLIYKVSYRFSGVPSRFSGSGSGTDFTFTISSLEAEDAATYYCSQNTHVPRTFGQG
Return: 1.2 fold of chimera

Enquiry: Please list mean fluorescence relative to chimeric antibody recorded for the binder pVxK7b-037-hum08-LC/pVxK7b-037-hum08-HC (antibody, human IgG1, V domains shown, Full-length human IgG1/kappa in CHO supernatant; Variable entries end within framework 4 (...FGQG / ...WGQG); also called Clone 8) VH: QITLKESGPTLVKPTQTLTLTCTFSGYTFTNYYVFWIRQSPSRGLEWLGDINPVNGDTNFNEKFKNRFTISRDNAKNSLYLQMNSLRAEDTAVYYCARGGYTMDYWGQG VL: DIVMTQTPLSLPVTPGEPASISCRSSQSLVHSNGNTYLHWYQQKPGKAPKLLIYKVSYRFSGVPDRFSGSGSGTDFTLKISRVEAEDVGVYYCSQNTHVPRTFGQG
Return: 1.2 fold of chimera

Enquiry: Please list mean fluorescence relative to chimeric antibody recorded for the binder pVxK7b-037-hum14-LC/pVxK7b-037-hum14-HC (antibody, human IgG1, V domains shown, Full-length human IgG1/kappa in CHO supernatant; Variable entries end within framework 4 (...FGQG / ...WGQG); also called Clone 14) VH: QVQLQESGPGLVKPSQTLSLTCTVSGYTFTNYYVFWVRQARGQRLEWIGDINPVNGDTNFNEKFKNRVTISADKSISTAYLQWSSLKASDTAMYYCARGGYTMDYWGQG VL: DVVMTQSPLSLPVTLGQPASISCRSSQSLVHSNGNTYLHWYQQKPGKAPKLLIYKVSYRFSGVPDRFSGSGSGTDFTLKISRVEAEDVGVYYCSQNTHVPRTFGQG
Return: 3.2 fold of chimera

***
Enquiry: Please list mean fluorescence relative to chimeric antibody recorded for the binder pVxK7b-037-hum19-LC/pVxK7b-037-hum19-HC (antibody, human IgG1, V domains shown, Full-length human IgG1/kappa in CHO supernatant; Variable entries end within framework 4 (...FGQG / ...WGQG); also called Clone 19) VH: EVQLVQSGAEVKKPGESLRISCKGSGYTFTNYYVFWIRQSPSRGLEWLGDINPVNGDTNFNEKFKNRVTITADKSTSTAYMELSSLRSEDTAVYYCARGGYTMDYWGQG VL: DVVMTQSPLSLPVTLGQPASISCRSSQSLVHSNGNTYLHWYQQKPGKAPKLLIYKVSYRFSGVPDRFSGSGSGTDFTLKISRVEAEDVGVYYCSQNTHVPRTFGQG
Return: 2.6 fold of chimera

Enquiry: Please list mean fluorescence relative to chimeric antibody recorded for the binder pVxK7b-037-hum17-LC/pVxK7b-037-hum17-HC (antibody, human IgG1, V domains shown, Full-length human IgG1/kappa in CHO supernatant; Variable entries end within framework 4 (...FGQG / ...WGQG); also called Clone 17) VH: EVQLVQSGAEVKKPGATVKISCKVSGYTFTNYYVFWIRQPPGKGLEWIGDINPVNGDTNFNEKFKNRVTITADKSTSTAYMELSSLRSEDTAVYYCARGGYTMDYWGQG VL: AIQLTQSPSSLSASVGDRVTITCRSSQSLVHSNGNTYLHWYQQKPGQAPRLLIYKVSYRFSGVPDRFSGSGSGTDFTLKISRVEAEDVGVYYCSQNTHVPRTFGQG
Return: 2.1 fold of chimera
